The values you see were collected from PubChem BioAssay AID1159580.

- ASSAY PROTOCOL: chemical genetic growth profiling, strain panel (AID 1159580);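 further: tested at 20 µM; growth read once vehicle control cultures reached saturation at 30 °C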
- CONDITIONS: S. cerevisiae deletion strains, growth OD, locus YBL061C, strain skt5, stronger effect = lower value
Out of some 5,500 compounds screened, about 2,000 (36%) were called active. Another 18% or so got no clear call; they are omitted. The list shows a part of the results.
Flag rule - normalized growth less than 1 flags T; the remaining entries get F.

compound="NC[C@@H]1O[C@H](O[C@@H]2[C@@H](CO)OC(O[C@@H]3[C@@H](O)[C@H](N)C[C@H](N)[C@H]3OC3O[C@H](CN)[C@@H](O)[C@H](O)[C@H]3N)[C@@H]2O)[C@H](N)[C@@H](O)[C@@H]1O (some centres not stated)" classification=F
compound=COc1c2c(c(CC=C(C)C)c3oc(=O)c(-c4ccc(O)cc4)c(O)c13)OC(C)(C)C=C2 classification=T
compound=N#Cc1c(Cl)c(Cl)c(Cl)c(C#N)c1Cl classification=T
